Measured cytotoxicity at 10 µM accompanies every entry in the list below.
Assay: Toxicity liver stage against HepG2, at 10uM
Assay type: cell-based
Set-up: test concentration 10 uM, cell line HepG2-A16-CD81EGFP
Details: human, HepG2-A16-CD81EGFP cells; read-out: INHIBITION
// note: answer is a bare numeric in %

Cc1cc(CN(Cc2ccccc2)CC(O)c2cccs2)on1 (configuration not stated)	5.29
Cc1ccc(S(=O)(=O)N2CCN(C)c3ccncc32)cc1F	9.21
O=C(c1cn(-c2ccc(C(F)(F)F)cn2)nn1)N1CCCCCC1	-57.4

Query: # lookup: cytotoxicity at 10 µM of CCCc1cc(C(=O)Nc2nc(SC)ns2)n(C)n1
Reply: 8.49

Query: What value of cytotoxicity at 10 µM has been recorded for this entry: Fc1ccc(CCC2CCCN(Cc3c[nH]cn3)C2)c(F)c1 (configuration not stated)
Reply: -6.51

Query: Quick check: cytotoxicity at 10 µM of CN(C)C(=O)c1cccc(CCNc2ccccc2S(C)(=O)=O)c1 ?
Reply: 11.5

The origin of these recorded values is ChEMBL document CHEMBL4513216.
